Reference source: paper PMC10287695

- Test Description: Pharmacokinetics, oral gavage
- Experimental Conditions: female, Swiss Webster, mouse, plasma, po, 200 mg/kg, plasma concentration, mice, 200 mg/kg p.o., 60 min
Quantity Name: concentration at 60 min (nM)
The response must be a number in nM with no trailing unit.

Lookup: Form field: reported concentration at 60 min of CCc1ccccc1-c1nc(CN[C@@H]2C[C@@H]3C[C@H]([C@H]2C)C3(C)C)c(C)o1 [Compound 2]
Found: 770

====

- Assay System: UniProtKB A0A1I9G0T9
- Sequence (A0A1I9G0T9 entry or part of it, added parts left off): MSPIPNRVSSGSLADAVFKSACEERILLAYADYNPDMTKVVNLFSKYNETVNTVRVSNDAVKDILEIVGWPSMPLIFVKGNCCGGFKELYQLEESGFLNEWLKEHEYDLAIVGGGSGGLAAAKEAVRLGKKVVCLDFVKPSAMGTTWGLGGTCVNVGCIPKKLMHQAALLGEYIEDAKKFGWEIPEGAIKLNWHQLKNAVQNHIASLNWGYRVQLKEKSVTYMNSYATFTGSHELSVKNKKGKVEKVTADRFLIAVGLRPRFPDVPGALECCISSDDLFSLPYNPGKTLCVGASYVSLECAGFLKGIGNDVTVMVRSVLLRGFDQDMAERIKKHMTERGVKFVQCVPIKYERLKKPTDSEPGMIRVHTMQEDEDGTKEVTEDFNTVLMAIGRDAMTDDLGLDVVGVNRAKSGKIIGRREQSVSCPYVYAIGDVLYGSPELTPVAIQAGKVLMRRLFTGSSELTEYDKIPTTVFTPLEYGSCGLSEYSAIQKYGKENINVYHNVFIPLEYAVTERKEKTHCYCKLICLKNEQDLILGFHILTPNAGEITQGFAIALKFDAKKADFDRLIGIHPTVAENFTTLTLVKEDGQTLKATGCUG
- Test Description: B. malayi TrxR enzyme inhibition
- Format: biochemical
- Experimental Conditions: read-out: BmTrxR IC50
Quantity Name: pIC50
# pIC50: negative log10 of molar concentration; output just the value

Lookup: Form field: reported pIC50 of C[C@@H]1[C@H]2C[C@@H](C[C@H]1NC(=O)Cc1nc3ccccc3n1C1CCCCC1)C2(C)C
Found: 5.60

====

Provide the recorded viability at 24 h, 25 µM for the entries that follow.
- Test Description: Cytotoxicity in mammalian cells (Cell Titer Glo)
- Assay type: cell-based
- Experimental Conditions: African green monkey; Vero cells, Conc. 25 µM
The response must be a number in % with no trailing unit.

Lookup: Form field: reported viability at 24 h, 25 µM of C#CCN(Cc1nc(-c2ccccc2)oc1C)[C@@H]1C[C@@H]2C[C@H]([C@H]1C)C2(C)C [Compound 6]
Found: 86.8

Lookup: Form field: reported viability at 24 h, 25 µM of CCc1ccccc1-c1nc(CN[C@@H]2C[C@@H]3C[C@H]([C@H]2C)C3(C)C)c(C)o1 [Compound 2]
Found: 95.6

Lookup: Form field: reported viability at 24 h, 25 µM of Cc1oc(-c2ccc3c(c2)OCO3)nc1CN[C@@H]1C[C@@H]2C[C@H]([C@H]1C)C2(C)C [Compound 1]
Found: 94.3

Lookup: Form field: reported viability at 24 h, 25 µM of Cc1oc(C2CCCCC2)nc1C(=O)N[C@@H]1C[C@@H]2C[C@H]([C@H]1C)C2(C)C [Compound 7]
Found: 89.5

Lookup: Form field: reported viability at 24 h, 25 µM of C[C@@H]1[C@H]2C[C@@H](C[C@H]1NCc1nc3ccccc3n1C1CCCCCC1)C2(C)C [Compound 8]
Found: 69.7

====

- Assay System: S. mansoni TGR (Schistosoma mansoni, UniProt Q962Y6)
- Sequence (Q962Y6 1-598): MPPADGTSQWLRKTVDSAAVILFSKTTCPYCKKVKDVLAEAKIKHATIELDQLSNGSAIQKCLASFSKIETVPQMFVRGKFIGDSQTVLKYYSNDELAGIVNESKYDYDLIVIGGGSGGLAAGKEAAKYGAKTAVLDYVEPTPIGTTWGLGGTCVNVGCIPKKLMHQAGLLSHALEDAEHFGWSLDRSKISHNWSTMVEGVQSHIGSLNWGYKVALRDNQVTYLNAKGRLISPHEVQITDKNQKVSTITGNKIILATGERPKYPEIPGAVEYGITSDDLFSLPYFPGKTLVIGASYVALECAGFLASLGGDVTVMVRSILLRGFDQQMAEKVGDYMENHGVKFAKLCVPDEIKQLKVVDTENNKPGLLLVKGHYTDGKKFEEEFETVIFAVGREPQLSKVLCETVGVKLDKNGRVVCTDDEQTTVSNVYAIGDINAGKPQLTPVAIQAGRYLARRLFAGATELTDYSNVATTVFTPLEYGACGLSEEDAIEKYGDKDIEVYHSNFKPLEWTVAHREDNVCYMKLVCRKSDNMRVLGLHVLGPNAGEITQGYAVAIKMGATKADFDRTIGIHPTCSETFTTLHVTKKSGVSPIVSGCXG
Provide the recorded IC50 for the entries that follow.
The response must be a number in µM with no trailing unit.

Lookup: Form field: reported IC50 of CC1C(NCc2cn(C3OCC(O)C(O)C3O)c3ccccc23)CC2CC1C2(C)C (stereo not drawn)
Found: 57.5

Lookup: Form field: reported IC50 of CC(=O)OC[C@H]1O[C@@H]([S-])[C@H](OC(C)=O)[C@@H](OC(C)=O)[C@@H]1OC(C)=O.CCP(CC)CC.[Au+] [AF, auranofin, reference compound]
Found: 0.007

Lookup: Form field: reported IC50 of C[C@@H]1[C@H]2C[C@@H](C[C@H]1NCc1nc3ccccc3n1C1CCCCCC1)C2(C)C
Found: 10.3

Lookup: Form field: reported IC50 of Cc1oc(C2CCCCC2)nc1C(=O)N[C@@H]1C[C@@H]2C[C@H]([C@H]1C)C2(C)C
Found: 14.6

Lookup: Form field: reported IC50 of C#CCN(CCCNC(=O)c1c(F)c(F)c(N=[N+]=[N-])c(F)c1F)[C@@H]1C[C@@H]2C[C@H]([C@H]1C)C2(C)C
Found: 34.9
